Entry source: ChEMBL document CHEMBL4266055

For Transitional endoplasmic reticulum ATPase (Homo sapiens), measured IC50 is reported for the entries below.
experimental.endpoint: IC50 (nM)

smiles_record=CN1CCN(CCNC2CCN(c3cccc(-c4cc5ccccc5[nH]4)c3)CC2)CC1 observed_value=280
smiles_record=CC(C)N1CCN(C2CCN(c3cccc(-c4cc5cc(F)ccc5[nH]4)c3)CC2)CC1 observed_value=4760
smiles_record=CN(C)CCNC1CCN(c2cccc(-c3cc4cc(F)ccc4[nH]3)c2)CC1 observed_value=800
smiles_record=CC(C)N1CCN(CCCNC2CCN(c3cccc(-c4cc5ccccc5[nH]4)c3)CC2)CC1 observed_value=380
smiles_record=CCN1CCN(CCNC2CCN(c3cccc(-c4cc5ccccc5[nH]4)c3)CC2)CC1 observed_value=200
smiles_record=CC(C)N1CCN(C2(CNC3CCN(c4cccc(-c5cc6cc(F)ccc6[nH]5)c4)CC3)COC2)CC1 observed_value=90
smiles_record=CC(C)N1CCN(C2(CNC3CCN(c4cccc(-c5cc6cc(F)ccc6[nH]5)c4)CC3)CCC2)CC1 observed_value=100
smiles_record=Cn1ncnc1CCNC1CCN(c2cccc(-c3cc4ccccc4[nH]3)c2)CC1 observed_value=990
smiles_record=CN1CCN(C2(CNC3CCN(c4cccc(-c5cc6cc(F)ccc6[nH]5)c4)CC3)CCC2)CC1 observed_value=20
smiles_record=c1ccc(CCNC2CCN(c3cccc(-c4cc5ccccc5[nH]4)c3)CC2)cc1 observed_value=2610
smiles_record=CC(C)N1CCC(NC2CCN(c3cccc(-c4cc5cc(F)ccc5[nH]4)c3)CC2)CC1 observed_value=50
smiles_record=CC(C)N1CCN(C(=O)CCNC2CCN(c3cccc(-c4cc5cc(F)ccc5[nH]4)c3)CC2)CC1 observed_value=190
smiles_record=CC(C)N1CCN(CCNC2CCN(c3cccc(-c4cc5cc(F)ccc5[nH]4)c3)CC2)CC1 observed_value=70
smiles_record=CC(C)(C)N1CCN(CCNC2CCN(c3cccc(-c4cc5ccccc5[nH]4)c3)CC2)CC1 observed_value=210
smiles_record=c1cc(-c2cc3ccccc3[nH]2)cc(N2CCC(NCCN3CCNCC3)CC2)c1 observed_value=330
smiles_record=c1ccc(CCNC2CCN(c3cccc(-c4cc5ccccc5[nH]4)c3)CC2)nc1 observed_value=1050
smiles_record=c1ccc(CNC2CCN(c3cccc(-c4cc5ccccc5[nH]4)c3)CC2)nc1 observed_value=1060
